target: Sting protein (Homo sapiens, UniProt Q86WV6, G230A/H232R/R293Q/R71H); construct: endogenous in cells; host or cells: THP1 cells (Shanghai Cell Bank); assay: Agonistic function test on Sting protein: IFN-β and CXCL10 (IP10) cytokines produced by THP1 cells (ELISA); type: cell-based; conditions: 18 hours, ELISA of supernatant, read-out: IFN-β EC50
Sequence (Q86WV6 whole entry R71H/G230A/H232R/R293Q): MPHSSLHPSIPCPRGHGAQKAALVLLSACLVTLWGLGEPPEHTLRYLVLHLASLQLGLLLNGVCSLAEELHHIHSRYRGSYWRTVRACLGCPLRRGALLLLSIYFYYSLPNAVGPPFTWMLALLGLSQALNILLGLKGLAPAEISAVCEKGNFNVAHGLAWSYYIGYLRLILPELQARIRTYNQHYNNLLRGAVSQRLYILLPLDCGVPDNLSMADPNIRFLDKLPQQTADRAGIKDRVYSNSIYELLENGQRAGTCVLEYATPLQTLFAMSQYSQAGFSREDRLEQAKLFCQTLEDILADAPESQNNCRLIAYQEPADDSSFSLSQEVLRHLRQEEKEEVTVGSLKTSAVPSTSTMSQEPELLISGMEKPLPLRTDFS
pEC50: −log10 of the molar value.
Observable: pEC50

Chem Smiles: CCc1nc(C)sc1C(=O)Nc1nc2cc(C(N)=O)cc(OC)c2n1C/C=C/Cn1c(NC(=O)c2cc(C)nn2CC)nc2cc(C(N)=O)cc(OCCCN3CCN(C(C)=O)CC3)c21
pEC50: 6.00 to 7.00

Qu. So what does the record say about pEC50 for CCc1nc(C)sc1C(=O)Nc1nc2cc(C(N)=O)cc(OCCCN3CCOCC3)c2n1C/C=C/Cn1c(NC(=O)c2sc(C)nc2CC)nc2cc(C(N)=O)cc(SC)c21 ?
Ans. 7.00 to 8.00

Qu. So what does the record say about pEC50 for CCc1nc(C)sc1C(=O)Nc1nc2cc(C(N)=O)cc(OCCCN3CCOCC3)c2n1C/C=C/Cn1c(NC(=O)c2cc(C)nn2CC)nc2cc(C(N)=O)cc(SC)c21 ?
Ans. 7.00 to 8.00

---

biological target: Sting protein (Homo sapiens, UniProt Q86WV6, G230A/H232R/R293Q/R71H); construct: endogenous in cells; host or cells: THP1 cells (Shanghai Cell Bank); assay: Agonistic function test on Sting protein: IFN-β and CXCL10 (IP10) cytokines produced by THP1 cells (ELISA); assay type: cell-based; settings: 18 hours, ELISA of supernatant, read-out: IFN-β EC50
Listing: EC50 of selected molecules

Worked set:
Chem Smiles: CCc1nc(C)sc1C(=O)Nc1nc2cc(C(N)=O)cc(OC)c2n1C/C=C/Cn1c(NC(=O)c2cc(C)nn2CC)nc2cc(C(N)=O)cc(OCCCN3CCN(CC)CC3)c21
EC50: 100 to 1000 nM
//
Chem Smiles: CCc1nc(C)sc1C(=O)Nc1nc2cc(C(N)=O)cc(OC)c2n1C/C=C/Cn1c(NC(=O)c2sc(C)nc2CC)nc2cc(C(N)=O)cc(OCCCN3CCOCC3)c21
EC50: 100 to 1000 nM
//
Chem Smiles: CCC(=O)N1CCN(CCCOc2cc(C(N)=O)cc3nc(NC(=O)c4cc(C)nn4CC)n(C/C=C/Cn4c(NC(=O)c5sc(C)nc5CC)nc5cc(C(N)=O)cc(OC)c54)c23)CC1
EC50: 100 to 1000 nM

Qu. So what does the record say about EC50 for CCn1nc(C)c(F)c1C(=O)Nc1nc2cc(C(N)=O)cc(OCCCN3CCOCC3)c2n1C/C=C/Cn1c(NC(=O)c2c(F)c(C)nn2CC)nc2cc(C(N)=O)cc(SC)c21 ?
Ans. 10 to 100 nM

Qu. So what does the record say about EC50 for CCc1nc(C)sc1C(=O)Nc1nc2cc(C(N)=O)cc(OCCCN3CCN(C4CC4)CC3)c2n1C/C=C/Cn1c(NC(=O)c2cc(C)nn2CC)nc2cc(C(N)=O)cc(SC)c21 ?
Ans. < 10 nM

Qu. So what does the record say about EC50 for CCc1nc(C)sc1C(=O)Nc1nc2cc(C(N)=O)cc(OCCCN3CCN(CC)CC3)c2n1C/C=C/Cn1c(NC(=O)c2cc(C)nn2CC)nc2cc(C(N)=O)cc(OC)c21 ?
Ans. 100 to 1000 nM

---

Listing: pEC50 of selected compounds
target: Sting protein (Homo sapiens, UniProt Q86WV6, G230A/H232R/R293Q/R71H); construct: endogenous in cells; host or cells: THP1 cells (Shanghai Cell Bank); test: Agonistic function test on Sting protein: IFN-β and CXCL10 (IP10) cytokines produced by THP1 cells (ELISA); format: cell-based; conditions: 18 hours, ELISA of supernatant, read-out: IP10 EC50
pEC50: −log10 of the molar value.

Worked set:
Chem Smiles: CCc1nc(C)sc1C(=O)Nc1nc2cc(C(N)=O)cc(OCCCN3CCN(C(C)C)CC3)c2n1C/C=C/Cn1c(NC(=O)c2cc(C)nn2CC)nc2cc(C(N)=O)cc(OC)c21
pEC50: 7.00 to 8.00
--
Chem Smiles: CCc1nc(C)sc1C(=O)Nc1nc2cc(C(N)=O)cc(SC)c2n1C/C=C/Cn1c(NC(=O)c2cc(C)nn2CC)nc2cc(C(N)=O)cc(OCCCN3CCN(C)CC3)c21
pEC50: 7.00 to 8.00
--
Chem Smiles: CCc1nc(C)sc1C(=O)Nc1nc2cc(C(N)=O)cc(OC)c2n1C/C=C/Cn1c(NC(=O)c2cc(C)nn2CC)nc2cc(C(N)=O)cc(SCCCN3CCOCC3)c21
pEC50: 6.00 to 7.00
--
Chem Smiles: CCc1nc(C)sc1C(=O)Nc1nc2cc(C(N)=O)cc(OCCCN3CCOCC3)c2n1C/C=C/Cn1c(NC(=O)c2cc(C)nn2CC)nc2cc(C(N)=O)cc(OC)c21
pEC50: 7.00 to 8.00
--
Chem Smiles: CCc1nc(C)sc1C(=O)Nc1nc2cc(C(N)=O)cc(SC)c2n1C/C=C/Cn1c(NC(=O)c2cc(C)nn2CC)nc2cc(C(N)=O)cc(OCCCN3CCN(C4CC4)CC3)c21
pEC50: 7.00 to 8.00
--
Chem Smiles: CCc1nc(C)sc1C(=O)Nc1nc2cc(C(N)=O)cc(OC)c2n1C/C=C/Cn1c(NC(=O)c2cc(C)nn2CC)nc2cc(C(N)=O)cc(OCCCN3CCN(C(C)C)CC3)c21
pEC50: 6.00 to 7.00

Qu. So what does the record say about pEC50 for CCc1nc(C)sc1C(=O)Nc1nc2cc(C(N)=O)cc(OC)c2n1C/C=C/Cn1c(NC(=O)c2cc(C)nn2CC)nc2cc(C(N)=O)cc(OCCCN3CCOCC3)c21 ?
Ans. 7.00 to 8.00

Qu. So what does the record say about pEC50 for CCc1nc(C)sc1C(=O)Nc1nc2cc(C(N)=O)cc(OCCCN3CCOCC3)c2n1C/C=C/Cn1c(NC(=O)c2cc(C)nn2CC)nc2cc(C(N)=O)cc(SC)c21 ?
Ans. > 8.00

Qu. So what does the record say about pEC50 for CCc1nc(C)sc1C(=O)Nc1nc2cc(C(N)=O)cc(SC)c2n1C/C=C/Cn1c(NC(=O)c2cc(C)nn2CC)nc2cc(C(N)=O)cc(OCCCN3CCOCC3)c21 ?
Ans. > 8.00

Qu. So what does the record say about pEC50 for CCc1nc(C)sc1C(=O)Nc1nc2cc(C(N)=O)cc(OC)c2n1C/C=C/Cn1c(NC(=O)c2cc(C)nn2CC)nc2cc(C(N)=O)cc(OCCCN3CCN(C4CC4)CC3)c21 ?
Ans. 7.00 to 8.00

Qu. So what does the record say about pEC50 for CCc1nc(C)sc1C(=O)Nc1nc2cc(C(N)=O)cc(OCCCN3CCN(C)CC3)c2n1C/C=C/Cn1c(NC(=O)c2cc(C)nn2CC)nc2cc(C(N)=O)cc(SC)c21 ?
Ans. 6.00 to 7.00

---

molecular target: Sting protein (Homo sapiens, UniProt Q86WV6, G230A/H232R/R293Q/R71H); construct: endogenous in cells; host or cells: THP1 cells (Shanghai Cell Bank); assay: Agonistic function test on Sting protein: IFN-β and CXCL10 (IP10) cytokines produced by THP1 cells (ELISA); format: cell-based; details: 18 hours, ELISA of supernatant, read-out: IFN-β EC50
pEC50: −log10 of the molar value.
Observable: pEC50

Worked set:
Compound: CCc1nc(C)sc1C(=O)Nc1nc2cc(C(N)=O)cc(OCCCN3CCOCC3)c2n1C/C=C/Cn1c(NC(=O)c2c(F)c(C)nn2CC)nc2cc(C(N)=O)cc(OC)c21 [Example 47]
System Under Test: Sting protein (Homo sapiens, UniProt Q86WV6, G230A/H232R/R293Q/R71H)
Observable: pEC50
Value Reported: < 6.00
//
Compound: CCc1nc(C)sc1C(=O)Nc1nc2cc(C(N)=O)cc(OCCCN3CCN(C(C)C)CC3)c2n1C/C=C/Cn1c(NC(=O)c2cc(C)nn2CC)nc2cc(C(N)=O)cc(SC)c21 [Example 18]
System Under Test: Sting protein (Homo sapiens, UniProt Q86WV6, G230A/H232R/R293Q/R71H)
Observable: pEC50
Value Reported: 6.00 to 7.00
//
Compound: CCc1nc(C)sc1C(=O)Nc1nc2cc(C(N)=O)cc(OCCCN3CCN(CC)CC3)c2n1C/C=C/Cn1c(NC(=O)c2cc(C)nn2CC)nc2cc(C(N)=O)cc(SC)c21 [Example 17]
System Under Test: Sting protein (Homo sapiens, UniProt Q86WV6, G230A/H232R/R293Q/R71H)
Observable: pEC50
Value Reported: 6.00 to 7.00
//
Compound: CCn1nc(C)cc1C(=O)Nc1nc2cc(C(N)=O)cc(SC)c2n1C/C=C/Cn1c(NC(=O)c2c(F)c(C)nn2CC)nc2cc(C(N)=O)cc(OCCCN3CCOCC3)c21 [Example 51]
System Under Test: Sting protein (Homo sapiens, UniProt Q86WV6, G230A/H232R/R293Q/R71H)
Observable: pEC50
Value Reported: 7.00 to 8.00

Kindly review the next compound as well.
Qu. So what does the record say about pEC50 for CCc1nc(C)sc1C(=O)Nc1nc2cc(C(N)=O)cc(OCCCN3CCOCC3)c2n1C/C=C/Cn1c(NC(=O)c2c(F)c(C)nn2CC)nc2cc(C(N)=O)cc(SC)c21 [Example 49] ?
Ans. 7.00 to 8.00

meta.source: patent US20220119379A1
